# credit: patent US11648254B2

- Target Or System: SOS1 (Homo sapiens (Human))
- Sequence (Q07889 564-1049): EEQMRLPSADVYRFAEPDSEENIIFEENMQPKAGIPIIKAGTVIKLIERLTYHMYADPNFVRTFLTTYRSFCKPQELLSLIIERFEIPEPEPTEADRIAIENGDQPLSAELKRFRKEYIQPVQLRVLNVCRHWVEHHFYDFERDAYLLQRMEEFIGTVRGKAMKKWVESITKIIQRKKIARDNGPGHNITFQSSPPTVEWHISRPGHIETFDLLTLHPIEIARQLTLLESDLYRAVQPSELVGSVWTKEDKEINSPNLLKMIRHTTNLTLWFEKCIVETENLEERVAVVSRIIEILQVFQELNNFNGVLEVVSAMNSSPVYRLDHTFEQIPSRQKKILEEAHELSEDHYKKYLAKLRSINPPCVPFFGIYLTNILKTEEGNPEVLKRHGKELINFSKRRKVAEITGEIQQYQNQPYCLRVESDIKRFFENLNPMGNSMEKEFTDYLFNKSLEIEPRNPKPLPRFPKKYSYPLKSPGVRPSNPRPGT
- Experiment Summary: Ras-SOS interaction assay (HTRF)
- Format: biochemical
- Condition Set: K-RasG13D utilized, read-out: IC50 inhibition of SOS

Test Smiles: COc1nc2nc(C)nc(N[C@H](C)c3cccc(C(F)(F)C4CCN(C(C)C)CC4)c3)c2cc1N1CCN(C(C)C)CC1
IC50: < 100 nM
//
Test Smiles: COc1nc2nc(N3CC(N(C)C)C3)nc(N[C@H](C)c3cccc(C(F)F)c3F)c2cc1C1(C#N)CC1
IC50: 100 to 1000 nM
//
Test Smiles: COc1nc2nc(C)nc(N[C@H](C)c3cccc(C(F)(F)C4CCN(C)CC4)c3F)c2cc1C1(C#N)CC1
IC50: < 100 nM
//
Test Smiles: Cc1nc(N[C@H](C)c2cccc(C(F)F)c2F)c2cc(C3(C(F)F)CC3)c(OC3CN(C)C3)nc2n1
IC50: < 100 nM

* * *

- Experiment Summary: In vitro plasma protein binding (PPB)
- Type: in vitro ADME
- Condition Set: percentage of free/unbound compound
Quick rule: DMPK-invitro-PPB (Mouse Unbound) [%] of at least 3% means True, below that means False.

Test Smiles: COc1nc2ncnc(N[C@H](C)c3cccc(C(C)(F)F)c3F)c2cc1C1CCS(=O)(=O)CC1
Class: True
//
Test Smiles: COc1nc2ncnc(N[C@H](C)c3cccc(C(F)(F)[C@@H](C)O)c3F)c2cc1C1(C#N)CC1
Class: False
//
Test Smiles: COc1nc2ncnc(N[C@H](C)c3cccc(C(F)F)c3F)c2cc1C1CCS(=O)(=O)CC1
Class: True
//
Test Smiles: COc1nc2nc(C)nc(N[C@H](C)c3cccc(C(F)(F)F)c3F)c2cc1C1CCN(C2CCOCC2)CC1
Class: False
//
Test Smiles: COc1nc2nc(C)nc(N[C@H](C)c3cccc(C(F)(F)F)c3C)c2cc1C1CCN(C2CCOCC2)CC1
Class: False
//
Test Smiles: COc1nc2nc(C)nc(N[C@H](C)c3cccc(C(F)(F)F)c3C)c2cc1N1CCN(C(C)C)CC1
Class: False
//
Test Smiles: COc1nc2ncnc(N[C@H](C)c3cccc(C(F)(F)[C@H](C)O)c3F)c2cc1C1(C#N)CC1
Class: False

* * *

- Experiment Summary: Metabolic (microsomal) stability assay
- Format: in vitro ADME
- Condition Set: mouse liver microsomes, T1/2; read-out: DMPK-invitro-metabolic Stability (Mouse T1/2)
Quantity: half-life (h)

Compound: Cc1nc(N[C@H](C)c2cccc(C(F)(F)C(C)(C)O)c2F)c2cc(C3(C#N)CC3)c(Cl)nc2n1 [Compound 170]
Quantity: half-life
U: h
Qualifier Operator: >
Val: 3.33
//
Compound: COc1nc2ncnc(N[C@H](C)c3cccc(C(F)(F)[C@@H](C)O)c3F)c2cc1C1(C#N)CC1 [Compound 329]
Quantity: half-life
U: h
Qualifier Operator: =
Val: 2
//
Compound: C[C@@H](Nc1ncnc2nc(Cl)c(C3(C#N)CC3)cc12)c1cccc(C(F)F)c1F [Compound 200]
Quantity: half-life
U: h
Qualifier Operator: =
Val: 2.57
//
Compound: C[C@@H](Nc1ncnc2nc(OC3CN(C)C3)c(C3(C#N)CC3)cc12)c1cccc(C(F)F)c1F [Compound 405]
Quantity: half-life
U: h
Qualifier Operator: >
Val: 3.33

* * *

- Target Or System: SOS1 (Homo sapiens (Human))
- Experiment Summary: Ras-SOS interaction assay (HTRF)
- Format: biochemical
- Condition Set: K-RasG13D utilized, read-out: IC50 inhibition of SOS

Compound: COc1nc2ncnc(N[C@H](C)c3cccc(C(F)(F)[C@H](C)O)c3)c2cc1C1(C#N)CC1 [Compound 266]
Target Or System: SOS1 (Homo sapiens (Human))
IC50: < 100 nM
--
Compound: COc1nc2nc(C)nc(N[C@H](C)c3cccc(C(F)(F)F)c3F)c2cc1C1CCN(C(C)=O)CC1 [Compound 165]
Target Or System: SOS1 (Homo sapiens (Human))
IC50: < 100 nM
--
Compound: COc1nc2nc(C)nc(N[C@H](C)c3cccc(C(F)(F)C4CCN(C(C)C)CC4)c3F)c2cc1N1CCN(C(C)C)CC1 [Compound 163]
Target Or System: SOS1 (Homo sapiens (Human))
IC50: < 100 nM
--
Compound: COc1nc2ncnc(N[C@H](C)c3cccc(C(F)(F)F)c3C)c2cc1N1CCN(C)CC1 [Compound 386]
Target Or System: SOS1 (Homo sapiens (Human))
IC50: < 100 nM
--
Compound: COc1nc2nc(C)nc(N[C@H](C)c3cccc(C(F)(F)[C@H](C)O)c3)c2cc1C1(C#N)CC1 [Compound 216]
Target Or System: SOS1 (Homo sapiens (Human))
IC50: < 100 nM
--
Compound: COc1nc2nc(C)nc(N[C@H](C)c3cccc(C(F)(F)C(C)(C)O)c3)c2cc1C1CCS(=O)(=O)CC1 [Compound 173]
Target Or System: SOS1 (Homo sapiens (Human))
IC50: < 100 nM
--
Compound: COc1nc2nc(C)nc(N[C@H](C)c3cccc(C(F)(F)[C@@H](C)O)c3F)c2cc1C1(C#N)CC1 [Compound 332]
Target Or System: SOS1 (Homo sapiens (Human))
IC50: < 100 nM

* * *

- System: MIA PaCa-2 cells (K-Ras G12C)
- Experiment Summary: Ras-SOS cellular growth inhibition assay (CellTiter-Glo, 3D)
- Assay type: cell-based
- Condition Set: MIA PaCa-2; read-out: IC50 in inhibiting MIA PaCa-2 cell growth
pIC50: −log10 of the molar value.

Molecule: COc1nc2nc(C)nc(N[C@H](C)c3cccc(C(F)F)c3F)c2cc1C1CCS(=N)(=O)CC1 (stereo partly shown)
pIC50: > 6.30

* * *

- Experiment Summary: Metabolic (microsomal) stability assay
- Assay type: in vitro ADME
- Condition Set: mouse liver microsomes, T1/2; read-out: DMPK-invitro-metabolic Stability (Mouse T1/2)
Quantity: half-life (min)

Test Smiles: Cc1nc(N[C@H](C)c2cccc(C(F)F)c2F)c2cc(C3(C#N)CC3)c(Cl)nc2n1
U: min
Qualifier Operator: =
Val: 31

Test Smiles: COc1nc2ncnc(N[C@H](C)c3cccc(C(F)(F)[C@@H](C)O)c3)c2cc1C1(C#N)CC1
U: min
Qualifier Operator: =
Val: 55.1

Test Smiles: C[C@@H](Nc1ncnc2nc(O[C@@H]3CCOC3)c(C3(C#N)CC3)cc12)c1cccc(C(F)F)c1F
U: min
Qualifier Operator: =
Val: 5.6

Test Smiles: COc1nc2nc(C)nc(N[C@H](C)c3cccc(C(F)(F)C(C)(C)O)c3F)c2cc1C1(C#N)CC1
U: min
Qualifier Operator: >
Val: 200

Test Smiles: Cc1nc(N[C@H](C)c2cccc(C(F)(F)C(C)(C)O)c2)c2cc(C3(C#N)CC3)c(Cl)nc2n1
U: min
Qualifier Operator: >
Val: 200

Test Smiles: Cc1nc(N[C@H](C)c2cccc(C(F)F)c2F)c2cc(C3(C#N)CC3)c(O[C@@H]3CCOC3)nc2n1
U: min
Qualifier Operator: =
Val: 1.5

Test Smiles: Cc1nc(N[C@H](C)c2cccc(C(F)(F)F)c2F)c2cc(C3(C#N)CC3)c(Cl)nc2n1
U: min
Qualifier Operator: =
Val: 70.6

Test Smiles: Cc1nc(N[C@H](C)c2cccc(C(F)(F)CO)c2F)c2cc(C3(C#N)CC3)c(Cl)nc2n1
U: min
Qualifier Operator: =
Val: 21.1

Test Smiles: C[C@@H](Nc1ncnc2nc(Cl)c(C3(C#N)CC3)cc12)c1cccc(C(F)(F)[C@@H](C)O)c1F
U: min
Qualifier Operator: >
Val: 200

Test Smiles: COc1nc2ncnc(N[C@H](C)c3cccc(C(F)(F)C(C)(C)O)c3)c2cc1C1(C#N)CC1
U: min
Qualifier Operator: >
Val: 200

Test Smiles: Cc1nc(N[C@H](C)c2cccc(C(F)F)c2F)c2cc(C3(C#N)CC3)c(OC3CN(C)C3)nc2n1
U: min
Qualifier Operator: =
Val: 42.2

Test Smiles: C[C@@H](Nc1ncnc2nc(OC3COC3)c(C3(C#N)CC3)cc12)c1cccc(C(F)F)c1F
U: min
Qualifier Operator: =
Val: 29.4

Test Smiles: C[C@H](O)C(F)(F)c1cccc([C@@H](C)Nc2ncnc3nc(Cl)c(C4(C#N)CC4)cc23)c1F
U: min
Qualifier Operator: >
Val: 200

* * *

- Target Or System: SOS1 (Homo sapiens (Human))
- Experiment Summary: Ras-SOS interaction assay (HTRF)
- Type: biochemical
- Condition Set: K-RasG13D, read-out: IC50 value against SOS1

Test Smiles: COc1nc2nc(C)nc(N[C@H](C)c3cccc(C(F)(F)C(C)(C)O)c3F)c2cc1C1(C#N)CC1
Target Or System: SOS1 (Homo sapiens (Human))
IC50: < 50 nM
//
Test Smiles: Cc1nc(N[C@H](C)c2cccc(C(F)F)c2F)c2cc(N3CCN(C(C)C)CC3)c(NC3COC3)nc2n1
Target Or System: SOS1 (Homo sapiens (Human))
IC50: < 50 nM
//
Test Smiles: Cc1nc(N[C@H](C)c2cccc(C(F)F)c2F)c2cc(N3CCS(=O)(=O)CC3)c(Cl)nc2n1
Target Or System: SOS1 (Homo sapiens (Human))
IC50: < 50 nM
//
Test Smiles: COc1nc2nc(C)nc(N[C@H](C)c3cccc(C(F)(F)F)c3C)c2cc1C1CCS(=O)(=O)CC1
Target Or System: SOS1 (Homo sapiens (Human))
IC50: < 50 nM
//
Test Smiles: COc1nc2nc(C)nc(N[C@H](C)c3cccc(C(F)(F)CCC4CN(C)C4)c3F)c2cc1C1CCS(=O)(=O)CC1
Target Or System: SOS1 (Homo sapiens (Human))
IC50: < 50 nM
//
Test Smiles: C[C@@H](Nc1ncnc2nc(Cl)c(N3CCS(=O)(=O)CC3)cc12)c1cccc(C(F)(F)F)c1F
Target Or System: SOS1 (Homo sapiens (Human))
IC50: < 50 nM
//
Test Smiles: COc1nc2nc(C)nc(N[C@H](C)c3cccc(C(F)(F)F)c3C)c2cc1N1CCN(C2CCOCC2)CC1
Target Or System: SOS1 (Homo sapiens (Human))
IC50: < 50 nM
//
Test Smiles: COc1nc2nc(C)nc(N[C@H](C)c3cccc(C(F)(F)CCC4CNC4)c3F)c2cc1C1(C#N)CC1
Target Or System: SOS1 (Homo sapiens (Human))
IC50: < 50 nM
//
Test Smiles: CCN1CCN(c2cc3c(N[C@H](C)c4cccc(C(F)F)c4F)nc(C)nc3nc2OC)CC1
Target Or System: SOS1 (Homo sapiens (Human))
IC50: < 50 nM
//
Test Smiles: Cc1nc(N[C@H](C)c2cccc(C(F)(F)F)c2F)c2cc(N3CCN(C(C)C)CC3)c(Cl)nc2n1
Target Or System: SOS1 (Homo sapiens (Human))
IC50: < 50 nM
//
Test Smiles: CCN1CCC(c2cc3c(N[C@H](C)c4cccc(C(F)(F)F)c4F)nc(C)nc3nc2OC)CC1
Target Or System: SOS1 (Homo sapiens (Human))
IC50: < 50 nM
//
Test Smiles: COc1nc2nc(C)nc(N[C@H](C)c3cccc(C(F)F)c3F)c2cc1N1CCN(C(C)C)CC1
Target Or System: SOS1 (Homo sapiens (Human))
IC50: < 50 nM
//
Test Smiles: CCN1CCC(c2cc3c(N[C@H](C)c4cccc(C(F)F)c4F)nc(C)nc3nc2OCCN(C)C)CC1
Target Or System: SOS1 (Homo sapiens (Human))
IC50: < 50 nM
//
Test Smiles: COc1nc2nc(C)nc(N[C@H](C)c3cccc(C(F)(F)F)c3C)c2cc1C1(C#N)CCN(C(C)C)CC1
Target Or System: SOS1 (Homo sapiens (Human))
IC50: < 50 nM
//
Test Smiles: Cc1nc(N[C@H](C)c2cccc(C(F)F)c2F)c2cc(S(=O)(=O)C3CCN(C)CC3)c(C)nc2n1
Target Or System: SOS1 (Homo sapiens (Human))
IC50: < 50 nM
